system: LOX IMVI melanoma; test: NCI tumour cell line growth inhibition, 48 h; in the data active = GI50 below about 0.43 µM; inactive = the rest
A correct response names exactly one class from active, inactive

Worked examples follow.
molecule	qualitativeLabel
CCOC(=O)Nc1ccc2nc(Sc3ccc(Cl)cc3)sc2c1	inactive
O=C(Nc1ccc(I)cc1F)c1cc(F)ccc1O	active
O=C1c2ccccc2-c2c1c1ccccc1c(=O)n2CCCNCCO	active
N#CCCCCCn1c2ccccc2c2c3c(c4c5ccccc5[nH]c4c21)C(=O)N(O)C3=O	active
CC[C@@]1(O)C(=O)N(CCN(C)C)Cc2c1cc1n(c2=O)Cc2cc3ccccc3nc2-1	inactive

IN: Please state the recorded outcome for this molecule: CCCCOc1nc2ccccc2cc1C1CNC(=O)c2ccccc2N1 (stereo not given)
OUT: inactive

IN: Please state the recorded outcome for this molecule: `O=C(Nc1ccc(Oc2cccc(Cl)c2)c(Cl)c1)c1cccnc1`
OUT: inactive

IN: Please state the recorded outcome for this molecule: `COc1ccc(Nc2ccnc3cc(Cl)ccc23)cc1CN(CCCl)CCCl`
OUT: inactive

IN: Please state the recorded outcome for this molecule: S=C1NC2=C(CCOc3c2ccc2ccccc32)C(c2ccc(Cl)cc2)N1 (stereo not given)
OUT: inactive

IN: Please state the recorded outcome for this molecule: `C[C@@H]1CC[C@H]2C(CN(C)CC3=C(C(F)(F)F)O[C@@H]4O[C@@]5(C)CC[C@H]6[C@H](C)CC[C@@H]3[C@@]46OO5)=C(C(F)(F)F)O[C@@H]3O[C@@]4(C)CC[C@@H]1[C@]32OO4`
OUT: inactive
